System: LOXIMVI
Assay Method Text: apoptotic fraction of cells (caspase-3 NucView488 positive); higher = more apoptosis
Details: 72 h; 0.0316 µM

Chemical String	Target Desc	apoptotic fraction of cells
Cn1cnc2c(F)c(Nc3ccc(Br)cc3Cl)c(C(=O)NOCCO)cc21	LOXIMVI	0.0426
CCCS(=O)(=O)Nc1ccc(F)c(C(=O)c2c[nH]c3ncc(-c4ccc(Cl)cc4)cc23)c1F	LOXIMVI	0.0537
CN(C)CCOc1ccc(-c2nc(-c3ccncc3)c(-c3ccc4c(c3)CC/C4=N\O)[nH]2)cc1	LOXIMVI	0.135
Cc1ccc(NC(=O)c2cccc(C(C)(C)C#N)c2)cc1Nc1ccc2ncn(C)c(=O)c2c1	LOXIMVI	0.0405
CCCS(=O)(=O)Nc1ccc(F)c(C(=O)c2c[nH]c3ncc(Cl)cc23)c1F	LOXIMVI	0.074
